Taken from PubChem BioAssay.

assay: reversal of MRP1-mediated doxorubicin resistance, pilot screen, H69AR cells, doxorubicin co-treatment (AID 601); settings: H69AR cells, CellTiter-Glo, 72 h; compound alone cytotoxicity; at 10 µM
Hi! Could you tag entries with viability below 90% as Y, and those at or above as N? Much appreciated.

Here's what some known entries look like.
compound	group label
COc1ccccc1N1CCN(C(=O)c2ccc(S(=O)(=O)N3CCCCCC3)cc2)CC1	Y
Cc1cc(C(=O)NCCCN2CCN(C3CCCCC3)CC2)n(-c2ccccc2)n1	N
CCN(c1cccc(C(F)(F)F)c1)S(=O)(=O)c1ccc2c(c1)CCN2C(=O)C1CC1	Y
COc1ccccc1-c1nnc2sc(-c3ccc(N(C)C)cc3)nn12	Y
COCCN1C(=O)C(=O)/C(=C(/O)c2cccc(OC)c2)C1c1ccncc1 (stereo not drawn)	N
O=C(c1cccc(Cl)c1)N1CCN(Cc2ccncc2)CC1	N

Hi there! Is viability for Cc1cc(C(=O)CSc2nc3ccccc3[nH]2)c(C)n1C below 90%, do you know?
N

Hi there! Is viability for COc1cc(CNc2ccc(N3CCOCC3)c(C(=O)O)c2)ccc1OCC(N)=O below 90%, do you know?
N

---

assay: reversal of MRP1-mediated doxorubicin resistance, pilot screen, H69AR cells, doxorubicin co-treatment (AID 601); conditions: H69AR cells + 2 uM doxorubicin, CellTiter-Glo, 72 h; at 10 µM; stronger effect = higher value
readout type: differential viability (reversal) (%)
Give bare numbers, in %.

Answered examples (4):
compound	output unit	differential viability (reversal)
O=c1[nH]c(SCc2cc(=O)n3ccccc3n2)nc2c1CCC2	%	1.62
COc1cccc(-c2nnc(SCC(=O)N3CCCc4ccccc43)o2)c1	%	4.79
CC(=O)c1cccc(NC(=O)c2ccc(NS(C)(=O)=O)cc2)c1	%	-1.39
CS(=O)(=O)N1CCN(CC2CC3C=CC2C3)CC1 (stereo unspecified)	%	9.65

Report differential viability (reversal) for every entry below.
1. NC(=O)CSc1nnc(-c2cc3ccccc3o2)n1Cc1ccccc1
2. Cc1nc(SCC(=O)Nc2ccccc2C(F)(F)F)c2c(=O)n(C)c(=O)n(C)c2n1
3. CCCCN(c1ccccc1)S(=O)(=O)c1ccc2c(c1)CCN2C(=O)CCC(=O)O
4. N=c1c(C(=O)NCc2ccc(F)cc2)cc2c(=O)n3ccccc3nc2n1CCCN1CCOCC1
5. CC1Oc2ccccc2N(CC(=O)N(Cc2ccccc2)Cc2ccccn2)C1=O (stereo unspecified)
6. N#CCCCCn1c(-c2cncs2)nc2ccccc21

[-1.59, -2.32, 1.98, -8.96, -1.47, 13.5]

Reported differential viability (reversal) for CCc1nn2c(=O)cc(CSc3nc4sc5c(c4c(=O)n3C)CCCC5)nc2s1 was 0.36

---

Could you please report measured viability for the items listed next?
experiment: reducers of endogenous Her2 protein level, primary screen, SKBR3 breast tumor cells, AlphaScreen, ATP viability (AID 461); conditions: 18-24 h, measured here: SKBR3 viability, ATP luminescence, at 10 µM;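 also: percent of carrier control wells set as 100% viability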
Give bare numbers, in %.

Answered examples (10):
molecule	readout type	endpoint value
Cc1ccccc1CN1CCN(CC(=O)NCc2ccccc2)C1=O	viability	113
Cn1nc(C(=O)NC2CCCCCC2)ccc1=O	viability	126
CCCCn1c(SCC(=O)c2ccc3c(c2)OCCO3)nnc1-c1ccco1	viability	94.5
COc1cc2nc(C3CCC3)n(NC(=O)C3CCCC(OC)C3)c(=O)c2cc1OC (stereo unspecified)	viability	100
c1ccc2c(c1)CNc1ccccc1C2	viability	97.5
O=c1c2c(nc3nc(CCc4ccccc4)[nH]n13)CCC2	viability	112
CC(C)Cn1c(N)c(C(=O)COC(=O)c2cc(-c3ccco3)nc3ccccc23)c(=O)n(C)c1=O	viability	78.5
O=S(=O)(c1ccc(S(=O)(=O)N2CCN3CCCC3C2)cc1)N1CCCC1 (stereo unspecified)	viability	80.5
O=S(=O)(c1ccc2ccccc2c1)N(CC(O)CN1CCOCC1)c1ccccc1 (stereo unspecified)	viability	87
CC(C)Cc1nc(S(=O)(=O)c2ccc(Cl)cc2)c(N2CCOCC2)o1	viability	128

Shift focus to the following entry.
Reported viability for COc1ccc(C(=O)CSc2nnc(C3CCCCC3)n2N)c(OC)c1 was 91.5
